Readings of microsomal CLint at 1 h, 1 µM for the listed molecules
Assay: Metabolic stability in liver microsomes
Format: in vitro ADME, Sprague-Dawley rat
Settings: Sprague-Dawley, rat, liver microsomes; read-out: LMClint
The answer consists of two parts: a number and, after it, its unit.

Reported microsomal CLint at 1 h, 1 µM for COc1cc2ncnc(Nc3ccc(F)c(Cl)c3)c2cc1OCCON1CCOCC1 [Compound 6] was 71 µL/min/mg

microsomal CLint at 1 h, 1 µM reading for COc1cc2ncnc(Nc3cccc(Cl)c3F)c2cc1OCCON1CCOCC1 [Compound 7] : 138 µL/min/mg

Reported microsomal CLint at 1 h, 1 µM of COc1cc2ncnc(Nc3ccc(F)c(Cl)c3)c2cc1OCCON1CCN(C)CC1 [Compound 8] : 62 µL/min/mg

Per the records, this molecule ( COc1cc2ncnc(Nc3cccc(Cl)c3F)c2cc1OCCON1CCN(C)CC1 [Compound 9] ) has microsomal CLint at 1 h, 1 µM equal to 146 µL/min/mg

Data provenance: paper PMC10683025
